# TARGET OR SYSTEM: the molecule itself
# PROTOCOL DESCRIPTION: SEC; analytical SEC, Superose 6 increase 10/300 GL; 30 mM Tris pH 7.9, 200 mM NaCl, 1 mM DTT, 1 mM EDTA; sample ~1 mg/mL, 100 uL injected; size and oligomeric state approximated from retention volume and a standard curve; self-association (hexamer, dimer)
MEASURED QUANTITY: relative absorbance maximum of the (AtNDK1)6 peak
In your answer, state the number alone without any accompanying words.

The protein listed as AtNDK1-K9E (enzyme, Arabidopsis thaliana, UniProt P39207 1-149, looked up, Arabidopsis thaliana NDK1, mutant open reading frame cloned into BamHI/EcoRI of pGEX6P-1; Elutes as a mix of hexamer and dimer by analytical SEC, dimer peak the larger; source: E. coli T7 express, purified (GSTrap, PreScission cleavage, glutathione agarose, SEC); not shown: GST, N-terminal, cleaved) MEQTFIMIEPDGVQRGLIGEVICRFEKKGFTLKGLKLISVERSFAEKHYEDLSSKSFFSGLVDYIVSGPVVAMIWEGKNVVLTGRKIIGATNPAASEPGTIRGDFAIDIGRNVIHGSDSVESARKEIALWFPDGPVNWQSSVHPWVYET shows relative absorbance maximum of the (AtNDK1)6 peak equal to 0.4

The protein listed as AtNDK1-K9R (enzyme, Arabidopsis thaliana, UniProt P39207 1-149, looked up, Arabidopsis thaliana NDK1, mutant open reading frame cloned into BamHI/EcoRI of pGEX6P-1; Elutes as a mix of hexamer and dimer by analytical SEC; source: E. coli T7 express, purified (GSTrap, PreScission cleavage, glutathione agarose, SEC); not shown: GST, N-terminal, cleaved) MEQTFIMIRPDGVQRGLIGEVICRFEKKGFTLKGLKLISVERSFAEKHYEDLSSKSFFSGLVDYIVSGPVVAMIWEGKNVVLTGRKIIGATNPAASEPGTIRGDFAIDIGRNVIHGSDSVESARKEIALWFPDGPVNWQSSVHPWVYET shows relative absorbance maximum of the (AtNDK1)6 peak equal to 1

The protein listed as AtNDK1-K9A (enzyme, Arabidopsis thaliana, UniProt P39207 1-149, looked up, Arabidopsis thaliana NDK1, mutant open reading frame cloned into BamHI/EcoRI of pGEX6P-1; Elutes as a mix of hexamer and dimer by analytical SEC; source: E. coli T7 express, purified (GSTrap, PreScission cleavage, glutathione agarose, SEC); not shown: GST, N-terminal, cleaved) MEQTFIMIAPDGVQRGLIGEVICRFEKKGFTLKGLKLISVERSFAEKHYEDLSSKSFFSGLVDYIVSGPVVAMIWEGKNVVLTGRKIIGATNPAASEPGTIRGDFAIDIGRNVIHGSDSVESARKEIALWFPDGPVNWQSSVHPWVYET shows relative absorbance maximum of the (AtNDK1)6 peak equal to 1

The protein listed as Arabidopsis thaliana nucleoside diphosphate kinase 1 (AtNDK1), wild-type (enzyme, UniProt P39207 1-149, looked up, Arabidopsis thaliana NDK1, open reading frame cloned into BamHI/EcoRI of pGEX6P-1; Hexamer by analytical SEC; also called WT AtNDK1; Arabidopsis NDK1; source: E. coli T7 express, purified (GSTrap, PreScission cleavage, glutathione agarose, SEC); not shown: GST, N-terminal, cleaved) MEQTFIMIKPDGVQRGLIGEVICRFEKKGFTLKGLKLISVERSFAEKHYEDLSSKSFFSGLVDYIVSGPVVAMIWEGKNVVLTGRKIIGATNPAASEPGTIRGDFAIDIGRNVIHGSDSVESARKEIALWFPDGPVNWQSSVHPWVYET shows relative absorbance maximum of the (AtNDK1)6 peak equal to 1
